# assayTarget: Trypsin (Homo sapiens, UniProt P07477+P07478+P35030)
# protocolNotes: Inhibition of human trypsin using Boc-Ile-Glu-Gly-Arg-AMC as substrate incubated for 15 mins by fluorescence reader analysis
# Format: protein assay
Form field: log10 of IC50 (one value per entry).
Scale: decimal log of IC50, IC50 in µM.

Recorded log10 of IC50, per entry:
[[record]]
molecule = "CC[C@@H](C(=O)Nc1ccc(C(N)=O)c(F)c1)n1cc(OC)c(-c2cc(Cl)ccc2-n2cc(C(F)(F)F)nn2)cc1=O"
recordedendpoint = "log10 of IC50"
measured = 0.61

[[record]]
molecule = "COc1cn(C(Cc2ccccc2)c2cn(-c3ccc(C(=O)O)cc3)nn2)c(=O)cc1-c1cc(Cl)ccc1-n1cc(Cl)nn1 (stereo not given)"
recordedendpoint = "log10 of IC50"
measured = 1.42

[[record]]
molecule = "COc1cn(C(Cc2ccccc2)c2cn(-c3ccc(C(=O)O)cc3)nn2)c(=O)cc1-c1cc(Cl)ccc1-n1cc(C(F)(F)F)nn1 (stereo not given)"
recordedendpoint = "log10 of IC50"
measured = 1.15

[[record]]
molecule = "COc1cn([C@@H](Cc2ccccc2)c2cn(-c3ccc(C(=O)O)cc3)nn2)c(=O)cc1-c1cc(Cl)ccc1-n1cc(Cl)nn1"
recordedendpoint = "log10 of IC50"
measured = 1.15

[[record]]
molecule = "COc1cn([C@@H](Cc2ccccc2)c2cn(-c3ccc(C(=O)O)cc3)nn2)c(=O)cc1-c1cc(Cl)ccc1-n1cc(C(F)(F)F)nn1"
recordedendpoint = "log10 of IC50"
measured = 1.22


COc1cn([C@H](Cc2ccccc2)c2cn(-c3ccc(C(=O)O)cc3)nn2)c(=O)cc1-c1cc(Cl)ccc1-n1cc(C(F)(F)F)nn1 has a reported log10 of IC50 of 1.95

CCC(c1cn(-c2ccc(C(=O)O)cc2)nn1)n1cc(OC)c(-c2cc(Cl)ccc2-n2cc(Cl)nn2)cc1=O (stereo not given) has a reported log10 of IC50 of 1.97

CC[C@@H](c1cn(-c2ccc(C(=O)OC)cc2)nn1)n1cc(OC)c(-c2cc(Cl)ccc2-n2cc(Cl)nn2)cc1=O has a reported log10 of IC50 of 1.92
